Test system: ES2
run.description: cell viability relative to DMSO control (MTS) (fraction of DMSO control); higher = more viable cells / less growth inhibition
assay.context: 10 µM; 48 h
Reported cell viability is given for each of the following compounds.
Could you respond with only the numeric value?

Req: # query: cell viability of entry CC(C)C[C@H](NC(=O)[C@H](Cc1ccccc1)NC(=O)c1cnccn1)B(O)O
Resp: 0.302

###

Test system: ES2
run.description: cell viability relative to DMSO control (MTS) (fraction of DMSO control); higher = more viable cells / less growth inhibition
assay.context: 10 µM; 48 h
Quick rule for you: cell viability under 0.9 gets Satisfied, anything else gets Not satisfied.

Example cases with answers are listed next.
| compound | category |
| --- | --- |
| CC1=C(/C=C/C(C)=C/C=C/C(C)=C/C(=O)O)C(C)(C)CCC1 | Not satisfied |
| Cc1c2oc3c(C)ccc(C(=O)N[C@@H]4C(=O)N[C@H](C(C)C)C(=O)N5CCC[C@H]5C(=O)N(C)CC(=O)N(C)[C@@H](C(C)C)C(=O)O[C@@H]4C)c3nc-2c(C(=O)N[C@@H]2C(=O)N[C@H](C(C)C)C(=O)N3CCC[C@H]3C(=O)N(C)CC(=O)N(C)[C@@H](C(C)C)C(=O)O[C@@H]2C)c(N)c1=O | Satisfied |
| Cc1[nH]c(/C=C2\C(=O)Nc3ccc(S(=O)(=O)N(C)c4cccc(Cl)c4)cc32)c(C)c1C(=O)N1CCN(C)CC1 | Satisfied |

Req: is_below(cell viability, 0.9) for CCOC(=O)C(C)(C)Oc1ccc(Cl)cc1 [Clofibrate] ?
Resp: Not satisfied

Req: is_below(cell viability, 0.9) for Cn1cnc2c(NCc3ccccc3)nc(NCCO)nc21 ?
Resp: Not satisfied

Req: is_below(cell viability, 0.9) for NC(=O)NO [Hydroxyurea] ?
Resp: Not satisfied

Req: is_below(cell viability, 0.9) for Cc1cnc(-c2cnc(NCCNc3ccc(C#N)cn3)nc2-c2ccc(Cl)cc2Cl)[nH]1 ?
Resp: Not satisfied

###

Reported cell viability is given for each of the following compounds.
Test system: TOV-21G
run.description: cell viability relative to DMSO control (MTS) (fraction of DMSO control); higher = more viable cells / less growth inhibition
assay.context: 10 µM; 48 h
Could you respond with only the numeric value?

Some entries whose results are on file:
| compound | data.value |
| --- | --- |
| N#C/C(=C\c1ccc(O)c(O)c1)C(=O)NCc1ccccc1 | 1 |
| C[C@]1(O)C[C@@H](c2nc(-c3ccc4ccc(-c5ccccc5)nc4c3)c3c(N)nccn32)C1 | 0.875 |
| CCC(=C/[C@H](C)C/C=C/C(C)=C/[C@@H](C)C(=O)[C@@H](C)[C@H](O)[C@@H](C)C/C(C)=C/C(=O)O)/C=C/[C@@H]1OC(=O)C=C[C@@H]1C | 0.39 |
| CCN1/C(=C/C(C)=O)Sc2ccc(OC)cc21 | 1.01 |

Req: # query: cell viability of entry Cc1ccc(-c2cn3c4c(sc3n2)CCCC4)cc1
Resp: 1.11

Req: # query: cell viability of entry CC[C@@]1(O)C[C@H](O[C@H]2C[C@H](N(C)C)[C@H](O[C@H]3C[C@H](O)[C@H](O[C@H]4CCC(=O)[C@H](C)O4)[C@H](C)O3)[C@H](C)O2)c2c(cc3c(c2O)C(=O)c2c(O)cccc2C3=O)[C@H]1C(=O)OC
Resp: 0.385

Req: # query: cell viability of entry O=C([O-])c1ccccc1O.[Na+] [Sodium salicylate]
Resp: 1.27

###

Reported cell viability is given for each of the following molecules.
Test system: ES2
run.description: cell viability relative to DMSO control (MTS) (fraction of DMSO control); higher = more viable cells / less growth inhibition
assay.context: 10 µM; 48 h
Counter-ions that a name gives are not always drawn.
Could you respond with only the numeric value?

Some entries whose results are on file:
| molecule | cell viability |
| --- | --- |
| COc1ccc([C@@H]2Sc3ccccc3N(CCN(C)C)C(=O)[C@@H]2OC(C)=O)cc1 [Diltiazem] | 0.858 |
| COc1ccc(OC)c2c(=S)c3ccccc3[nH]c12 | 1.35 |
| O=C(NCCCCCCNC(=O)ON=C1CCCCC1)ON=C1CCCCC1 | 1.3 |

Req: # query: cell viability of entry COc1ccc(COc2ccc(Cc3cnc(N)nc3N)cc2OC)cc1 [cFMS Receptor Tyrosine Kinase Inhibitor]
Resp: 0.942

Req: # query: cell viability of entry COc1cccc2c1C(=O)c1c(O)c3c(c(O)c1C2=O)C[C@@](O)(C(C)=O)C[C@@H]3O[C@H]1C[C@H](N)[C@H](O)[C@H](C)O1 [Daunorubicin, HCl]
Resp: 0.435

Req: # query: cell viability of entry CNC(=O)[C@H](Cc1c[nH]c2ccccc12)NC(=O)[C@@H](CC(=O)NO)CC(C)C
Resp: 1.02

Req: # query: cell viability of entry COc1ccc(Cn2ccc3ccc(C(=O)NO)cc32)cc1
Resp: 0.928

Req: # query: cell viability of entry Cc1ccc(-c2cn3c4c(sc3n2)CCCC4)cc1 [Pifithrin-a (cyclic)]
Resp: 1.03

Req: # query: cell viability of entry O=S(=O)(c1cccc2cnccc12)N1CCCNCC1
Resp: 0.979

###

Tested on: ES2
run.description: cell viability relative to DMSO control (MTS) (fraction of DMSO control); higher = more viable cells / less growth inhibition
assay.context: 10 µM; 48 h
Reported cell viability is given for each of the following compounds.

Some entries whose results are on file:
| compound | cell viability |
| --- | --- |
| O=c1cc(-c2ccccc2)oc2cc(O)c(O)c(O)c12 [Baicalein] | 0.916 |
| NCC(=O)Nc1ccc(-n2nc(C(F)(F)F)cc2-c2ccc3c(ccc4ccccc43)c2)cc1 | 1.04 |
| COc1ccc(Cl)cc1C(=O)NCCc1ccc(S(=O)(=O)NC(=O)NC2CCCCC2)cc1 [Glibenclamide] | 0.829 |
| COc1cc(O)c(CC=C(C)C)c(O)c1C(=O)/C=C/c1ccc(O)cc1 [Xanthohumol] | 1.07 |
| CC(C)(C)c1nc2c3cc[nH]c(=O)c3c3cc(F)ccc3c2[nH]1 [JAK Inhibitor I] | 0.561 |
| CN(C)c1ccccc1CN1CCCN(Cc2ccccc2N(C)C)C1c1ccncc1 | 0.853 |

Req: # query: cell viability of entry Oc1c2ccccc2c2c3c(cccc13)N=N2
Resp: 0.721

Req: # query: cell viability of entry COc1cc2c(cc1OC)-c1[nH]nc(Nc3cccc(F)c3)c1C2 [PDGF receptor tyrosine kinase inhibitor IV]
Resp: 0.288

Req: # query: cell viability of entry Clc1ccccc1CNCC1CCC(CNCc2ccccc2Cl)CC1 (stereo not drawn)
Resp: 0.789

Req: # query: cell viability of entry O=C1CCC(N2C(=O)c3ccccc3C2=O)C(=O)N1 (stereo not drawn) [thalidomide]
Resp: 0.958

Req: # query: cell viability of entry Nc1ncn([C@@H]2O[C@H](CO)[C@@H](O)[C@H]2O)c(=O)n1 [Azacytidine]
Resp: 0.664

Req: # query: cell viability of entry CCN(CC)CC(=O)Nc1c(C)cccc1C [Lidocaine]
Resp: 1.1

Req: # query: cell viability of entry O=C(Nc1cccc(Nc2nccc(Nc3cccc(C(F)(F)F)c3)n2)c1)C1CC1 [Aurora kinase inhibitor III]
Resp: 0.94

###

Reported cell viability is given for each of the following compounds.
Test system: TOV-21G
run.description: cell viability relative to DMSO control (MTS) (fraction of DMSO control); higher = more viable cells / less growth inhibition
assay.context: 10 µM; 48 h
Could you respond with only the numeric value?

Some entries whose results are on file:
| chem.smiles | cell viability |
| --- | --- |
| CN(C)S(=O)(=O)c1ccc2c(c1)/C(=C/c1cc3c([nH]1)CCCC3)C(=O)N2 | 0.891 |
| CC#C[C@]1(O)CC[C@H]2[C@@H]3CCC4=CC(=O)CCC4=C3[C@@H](c3ccc(N(C)C)cc3)C[C@@]21C | 0.846 |
| Fc1ccc(Cl)cc1-c1nc(Nc2ccncc2)c2nccnc2n1 | 1.08 |
| C[n+]1ccc(-c2c3nc(c(-c4cc[n+](C)cc4)c4ccc([nH]4)c(-c4cc[n+](C)cc4)c4ccc([nH]4)c(-c4cc[n+](C)cc4)c4nc2C=C4)C=C3)cc1 | 0.79 |
| CCn1cc(C(=O)O)c(=O)c2ccc(C)nc21 | 1.12 |

Req: # query: cell viability of entry O=S(=O)(c1cccc2cnccc12)N1CCCNCC1
Resp: 1.04

Req: # query: cell viability of entry CC(C)C[C@H](NC(=O)[C@H](Cc1ccccc1)NC(=O)c1cnccn1)B(O)O
Resp: 0.432

Req: # query: cell viability of entry CN(C)CC[C@H](CSc1ccccc1)Nc1ccc(S(=O)(=O)NC(=O)c2ccc(N3CCN(Cc4ccccc4-c4ccc(Cl)cc4)CC3)cc2)cc1[N+](=O)[O-]
Resp: 0.358
